Consider the following molecules; for each one, report its IC50.
System: hepatocarcinoma (HUH7.5) cells
Assay: Proapoptotic effect by flow cytofluorometry, HUH7.5 cells
Type: cell-based
Settings: Homo sapiens, 24 hours incubation, three experiments in triplicate, read-out: IC50 ± S.D. (concentration required to cause 50% apoptosis), HUH7.5
Source text: Flow cytofluorometry was used to evaluate the ability of some compounds of the invention to induce cell death, with particular reference to apoptosis. […] Annexin is detected because it is conjugated to a specific fluorochrome, thus allowing to distinguish apoptosis from necrotic phenomena, which are instead measured by the fluorescent dye propidium iodide, which penetrates freely in the cell having a damaged plasmatic membrane. […]
Give bare numbers, in µM.

Example entries and their recorded answers appear below.
> print(dat)
                                   molecule  property.measured  recorded.measurement
1  CCCCC[Se]c1ccc(C(=O)CCN2CCOCC2)cc1 [Compound 15]               IC50                  12.2
2  CCCCCCCc1ccc(C(=O)CCN2CCOCC2)cc1 [Compound 24]               IC50                   0.5
3  CCCCCCCOc1ccc(C(=O)CCN2CCOCC2)cc1 [Compound 2]               IC50                  1.58

Required: IC50, one value per molecule below.
1. CCCCCC[Se]c1ccc(C(=O)CCN2CCCCC2)cc1 [Compound 19]
2. CCCCCSc1ccc(C(=O)CCN2CCN(C)CC2)cc1 [Compound 12]

Outgoing:
1. 12
2. 14.5

The measurements presented in this section are drawn from patent US11345673B2.
